settings: in ethyl acetate, 289.15 K
EXPERIMENTAL READOUT: solubility (mole fraction)

Data request, read-out solubility (mole fraction), for C/C=C/C=C/C(=O)O
0.0314

----------
conditions: in ethanol, 318.15 K
EXPERIMENTAL READOUT: solubility (mole fraction)
Please give the numeric answer without any surrounding text.

Item C/C=C/C=C/C(=O)O has what recorded solubility (mole fraction)?
0.121

----------
details: in ethanol, 303.15 K
EXPERIMENTAL READOUT: solubility (mole fraction)
Answer with a number only.

What value of measured solubility (mole fraction) is listed for C/C=C/C=C/C(=O)O ?
0.0747

----------
details: in methanol, 285.15 K
EXPERIMENTAL READOUT: solubility (mole fraction)

Name the recorded solubility (mole fraction) for C/C=C/C=C/C(=O)O .
0.0328

Measured values drawn from BigSolDB 2.1 for this set.
